Molecular target: GABA-B receptor (Rattus norvegicus (Rat), UniProt O88871+Q9Z0U4)
Sequence (Q9Z0U4 17-960): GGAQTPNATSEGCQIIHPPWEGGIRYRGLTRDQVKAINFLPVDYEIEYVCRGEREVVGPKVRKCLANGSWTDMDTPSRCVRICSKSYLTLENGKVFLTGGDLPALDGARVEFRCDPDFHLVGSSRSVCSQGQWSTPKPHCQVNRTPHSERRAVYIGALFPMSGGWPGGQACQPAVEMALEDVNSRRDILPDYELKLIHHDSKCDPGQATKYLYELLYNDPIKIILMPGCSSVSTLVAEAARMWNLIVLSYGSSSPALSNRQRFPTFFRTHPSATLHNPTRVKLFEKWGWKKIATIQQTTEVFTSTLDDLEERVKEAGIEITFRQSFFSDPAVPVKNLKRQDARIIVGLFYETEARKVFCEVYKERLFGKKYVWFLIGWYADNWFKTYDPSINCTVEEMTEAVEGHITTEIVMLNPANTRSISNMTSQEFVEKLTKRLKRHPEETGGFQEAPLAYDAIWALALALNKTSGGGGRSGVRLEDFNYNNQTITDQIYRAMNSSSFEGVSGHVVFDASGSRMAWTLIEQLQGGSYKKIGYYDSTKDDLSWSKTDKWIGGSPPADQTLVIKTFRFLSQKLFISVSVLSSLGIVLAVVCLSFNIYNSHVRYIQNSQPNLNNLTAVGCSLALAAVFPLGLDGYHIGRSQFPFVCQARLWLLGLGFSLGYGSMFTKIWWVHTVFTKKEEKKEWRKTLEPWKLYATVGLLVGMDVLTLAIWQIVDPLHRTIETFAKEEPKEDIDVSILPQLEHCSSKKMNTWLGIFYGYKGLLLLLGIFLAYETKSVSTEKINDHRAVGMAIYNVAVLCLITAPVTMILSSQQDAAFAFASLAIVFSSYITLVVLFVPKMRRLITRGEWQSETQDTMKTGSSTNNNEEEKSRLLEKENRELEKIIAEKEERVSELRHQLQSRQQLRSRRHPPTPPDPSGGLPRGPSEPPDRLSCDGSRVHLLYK
Sequence (O88871 41-940): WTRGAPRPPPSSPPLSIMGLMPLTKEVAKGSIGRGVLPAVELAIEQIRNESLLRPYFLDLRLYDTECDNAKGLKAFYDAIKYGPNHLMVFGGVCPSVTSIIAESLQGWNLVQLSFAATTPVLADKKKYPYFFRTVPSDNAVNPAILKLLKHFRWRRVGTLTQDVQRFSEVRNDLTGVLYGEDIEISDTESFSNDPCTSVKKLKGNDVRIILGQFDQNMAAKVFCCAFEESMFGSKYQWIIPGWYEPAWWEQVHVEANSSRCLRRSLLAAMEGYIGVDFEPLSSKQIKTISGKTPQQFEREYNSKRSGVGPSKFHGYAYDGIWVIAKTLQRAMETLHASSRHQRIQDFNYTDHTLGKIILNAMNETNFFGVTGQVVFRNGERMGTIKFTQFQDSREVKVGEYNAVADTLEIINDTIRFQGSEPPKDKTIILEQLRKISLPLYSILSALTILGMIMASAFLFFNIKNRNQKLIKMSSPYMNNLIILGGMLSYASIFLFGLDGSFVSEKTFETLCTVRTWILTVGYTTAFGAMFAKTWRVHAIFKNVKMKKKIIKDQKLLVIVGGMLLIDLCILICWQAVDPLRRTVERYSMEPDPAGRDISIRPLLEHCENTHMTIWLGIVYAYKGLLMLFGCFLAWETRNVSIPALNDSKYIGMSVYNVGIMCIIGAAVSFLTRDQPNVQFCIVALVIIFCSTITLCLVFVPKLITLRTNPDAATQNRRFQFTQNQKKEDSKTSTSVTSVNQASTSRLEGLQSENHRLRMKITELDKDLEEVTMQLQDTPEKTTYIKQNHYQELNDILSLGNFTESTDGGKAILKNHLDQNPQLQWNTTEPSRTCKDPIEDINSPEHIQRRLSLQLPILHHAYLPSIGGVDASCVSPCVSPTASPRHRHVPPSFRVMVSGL
Assay: [35S]GTPgS Binding Assay (rat brain cortex membranes, native receptor)
Assay type: biochemical
Conditions: rat cortical membranes; in the presence of 1 μM GABA (EC25); basal binding 0%, maximal binding (1 mM GABA) 100%
pEC50: −log10 of the molar value.
measureName: pEC50

A: COc1ccc(OC)c(-c2nn([C@@H](C)c3ccc(Cl)cc3)c(=O)c3c(C4CC4)noc23)c1
B: Cc1noc2c(-c3cc(F)ccc3N)nn(C(C)c3ccc(Cl)cc3)c(=O)c12 (centres unmarked)
C: COc1ccc(OC)c(-c2nn([C@H](C)c3ccc(C(F)(F)F)cc3)c(=O)c3c(C)noc23)c1
D: COc1ccc(C(N)=O)cc1-c1nn(C(C)c2ccc(Cl)cc2)c(=O)c2c(C)noc12 (centres unmarked)
E: COCc1noc2c(-c3cccc(NC(C)=O)c3)nn(Cc3ccc(Cl)cc3)c(=O)c12
Your job: order these 5 records by pEC50, ascending. Sort the labels as requested; that list is your answer.
E, B, C, A, D

a: Cc1noc2c(-c3cc(F)cc(F)c3N)nn(C(C)c3ccc(Cl)cc3)c(=O)c12 (centres unmarked)
b: COc1ccc(NC(C)=O)cc1-c1nn([C@H](C)c2ccc(C(F)(F)F)cc2)c(=O)c2c(C)noc12
c: Cc1noc2c(-c3cccnc3Cl)nn(C(C)c3ccc(Cl)cc3)c(=O)c12 (centres unmarked)
d: CC(=O)Nc1cccc(-c2nn([C@H](C)c3ccc(Cl)cc3)c(=O)c3c(C)noc23)c1
e: Cc1ccc(O)cc1-c1nn(C(C)c2ccc(Cl)cc2)c(=O)c2c(C)noc12 (centres unmarked)
In this exercise, place the 5 compounds in ascending sequence of their recorded pEC50. Sort the labels as requested; that list is your answer.
d, a, c, e, b

P: COc1ccc(-c2nn(Cc3cc(C(F)(F)F)ccc3F)c(=O)c3c(C)noc23)c(OC)c1
Q: COc1ccc(Cn2nc(-c3ccc(F)cc3)c3onc(C)c3c2=O)cc1C(F)(F)F
R: COc1ccc(F)cc1-c1nn(C(C)c2ccc(Cl)cc2)c(=O)c2c(C)noc12 (centres unmarked)
S: CC(=O)Nc1cccc(-c2nn(C(C)c3ccc(Cl)cc3)c(=O)c3c(C)noc23)c1 (centres unmarked)
T: COc1ccc(OC)c(-c2nn(Cc3ccc(Cl)cc3)c(=O)c3c(C)noc23)c1
List items by pEC50 in falling order. Sort the labels as requested; that list is your answer.
R, T, P, Q, S
